# assayDetails: NCI Yeast Anticancer Drug Screen. Data for the rad50 strain (AID 155);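 further: 0% = growth of vehicle-only cultures of the same strain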
# conditionParameters: S. cerevisiae rad50 strain growth inhibition; at 50.0 µM
About 79,000 compounds went through this panel and 15% of them were active in at least one assay; those are over-represented in the sample as a whole. Calls of active or inactive are those of the source. No stated cut-off is given here; in the data, active means growth inhibition above about 70%; inactive means the rest.
Possible outcomes: Y (active), N (inactive)

| compound | assignedCategory |
| --- | --- |
| CCOP(=O)(OCC)/C(C#N)=C/c1coc2cc(C)cc(C)c2c1=O | Y |
| CC(C)=CCC/C(=C/CC/C(C)=C/CCc1ccoc1)C(=O)O | Y |
| Nc1nc(-c2ccccc2)c(N=Nc2c(Cl)cccc2Cl)s1 | Y |
| Cc1nc2c(O)c3c(c(O)c2nc1C)C1C=CC3CC1 | N |
| O=[N+]([O-])c1ccc(NC(=S)N/N=C(\c2ccccc2)c2ccccn2)cc1 | N |
| Cc1cc(Cc2ccccc2)ccc1O | N |
| Cc1c2ccnc(-c3ccc(F)cc3)c2cc2c1[nH]c1ccccc12 | N |
| CC1=CC2N(C=C1)C(c1ccccc1)=NON2c1cc(C)ccn1 (stereo unspecified) | N |
| CCCCCC/C=C/C#CCCCCCCCC(=O)O | N |
| N#CC(C#N)=c1c2nsnc2c(=C(C#N)C#N)c2nsnc12 | N |
| COc1cc(-c2oc(C=Nc3ccccc3)c([N+](=O)[O-])c2-c2ccc(O)c(OC)c2)ccc1O | N |

----------
# assayDetails: NCI Yeast Anticancer Drug Screen. Data for the bub3 strain (AID 167)
# conditionParameters: S. cerevisiae bub3 mutant strain, at 50.0 µM (retest, dose inferred, filed as 5.0), active compounds read high
Compounds without any hit were thinned out: in the full panel of roughly 79,000, 15% have a hit.
Would you please tag the item Satisfied when its growth inhibition is 80% or above, and Not satisfied when it is below?

| molecule | assignedCategory |
| --- | --- |
| CC(=O)Oc1c([N+](=O)[O-])cc(-c2ccccc2)cc1[N+](=O)[O-] | Satisfied |
| O=C(O)C(Cc1cc(I)c(O)c(I)c1)c1ccccc1 (stereo unspecified) | Not satisfied |
| COC(=O)[C@@H](O)[C@]1(C(=O)OC)C2O[C@@H](OC)[C@@H]1CCCCCC[C@H]2O | Not satisfied |
| C[C@]12CCC(=O)C=C1CC[C@@H]1[C@@H]2[C@@H](O)C[C@@]2(C)[C@H]1CC[C@]2(O)C(=O)COC(=O)CCC1CCCC1 | Satisfied |
| O=C1C=C(Cl)C(=O)C2=C1CCCC2 | Satisfied |
| O=C(O)c1ccc([N+](=O)[O-])o1 | Not satisfied |
| COc1cccc(=O)cc1 | Satisfied |
| CCC/C(=N\O)S(=O)(=O)c1ccc(NN=O)nc1 | Not satisfied |
| O=C(c1ccc([N+](=O)[O-])cc1)c1[nH]c2ccccc2c(=O)c1-c1ccccc1 | Satisfied |

----------
# assayDetails: NCI Yeast Anticancer Drug Screen. Data for the sgs1 mgt1 strain (AID 161);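 further: 0% = growth of cultures given vehicle only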
# conditionParameters: S. cerevisiae sgs1 mgt1 strain, at 5.0 µM (retest, dose inferred, filed as 0.5), active compounds read high
Compounds without any hit were thinned out: in the full panel of roughly 79,000, 15% have a hit.

| molecule | growth inhibition [%] |
| --- | --- |
| CC(CC(C)[C@H]1CCC2[C@H]3C(CC(=O)[C@@]21C)[C@@]1(C)CCC(O)C[C@H]1C[C@@H]3O)C(=O)O (stereo partly drawn) | -1 |
| O=Cc1ccc([N+](=O)[O-])o1 | 13 |
| COc1ccccc1CN1CCCN(Cc2ccccc2OC)C1c1ccccc1F | 4 |
| Cc1cc(Cc2cccc(Cl)c2)ccc1O | -2 |
| CN(C)c1ccc(N=Nc2ccc(/C=C3\CCOC3=O)cc2)cc1 | -6 |
| Cc1[nH]nc(-c2cccnc2)c1N=NN1CCOCC1 | -5 |
| Cc1c(-c2ccccc2)ccnc1/C=N/NS(=O)(=O)c1ccccc1 | 4 |
| Oc1ccccc1C(c1cc2c(cc1O)OCO2)N1CCOCC1 (stereo not drawn) | -51 |
| CCCCCCCCCCCCCCCCCC[N+]1(C)CCC[N+](C)(CCCCCCCCCCCCCCCCCC)CC1 (stereo not drawn) | 2 |
| CCN(CCCOc1ccccc1)CCN(CC)CCCOc1ccccc1 | 1 |
| FC(F)(F)c1ccc(NC(=S)SCc2ccc3c(c2)OCO3)cc1 | -3 |
| CC(=O)OC(OC(C)=O)c1ccc2ccc3cccc4ccc1c2c34 | -16 |
| CC(O)(CO)CC(C)(O)CO (stereo not drawn) | -1 |
| CN(C)CC1CC/C(=C\c2ccc(Cl)c(Cl)c2)C1=O (stereo not drawn) | 25 |
| C/C(=N/NC(N)=S)C(CN1CCOCC1)C(C1=C(O)c2ccccc2OC1)c1ccccc1 (stereo not drawn) | 24 |
| COc1ccc(C(=O)Cc2ccc(Cl)cc2)cc1OC | -14 |
| CCNC(=S)N/N=C(/C)c1cccc(/C(C)=N\NC(=S)NCC)n1 | 13 |
| CN(C)c1ccc(-c2c(C#N)c(S)n(NS(=O)(=O)c3ccccc3)c(=O)c2C#N)cc1 | 38 |
| CC(=O)NC1=C(Cl)C(=O)c2ccccc2C1=O | 70 |
| CC1=NN(c2ccccc2)C(=O)C12[C@H](c1ccccc1)C2(C#N)C#N (stereo partly drawn) | 46 |
| O=C(O)Cc1c(-c2noc(-c3ccccc3)c2CC(=O)O)noc1-c1ccccc1 | -16 |
| COc1cc(Nc2ccc(Oc3ccc(O)cc3)cc2)c2ncccc2c1 | -12 |
| CC(=O)OCC1OC(N2CCc3cc([N+](=O)[O-])ccc32)C(OC(C)=O)C(OC(C)=O)C1OC(C)=O (stereo not drawn) | 3 |
